Attribution: PubChem BioAssay (EPA / NIEHS)

Target: Bile acid receptor (Homo sapiens) (UniProt Q96RI1)
Sequence (Q96RI1 whole entry, looked up): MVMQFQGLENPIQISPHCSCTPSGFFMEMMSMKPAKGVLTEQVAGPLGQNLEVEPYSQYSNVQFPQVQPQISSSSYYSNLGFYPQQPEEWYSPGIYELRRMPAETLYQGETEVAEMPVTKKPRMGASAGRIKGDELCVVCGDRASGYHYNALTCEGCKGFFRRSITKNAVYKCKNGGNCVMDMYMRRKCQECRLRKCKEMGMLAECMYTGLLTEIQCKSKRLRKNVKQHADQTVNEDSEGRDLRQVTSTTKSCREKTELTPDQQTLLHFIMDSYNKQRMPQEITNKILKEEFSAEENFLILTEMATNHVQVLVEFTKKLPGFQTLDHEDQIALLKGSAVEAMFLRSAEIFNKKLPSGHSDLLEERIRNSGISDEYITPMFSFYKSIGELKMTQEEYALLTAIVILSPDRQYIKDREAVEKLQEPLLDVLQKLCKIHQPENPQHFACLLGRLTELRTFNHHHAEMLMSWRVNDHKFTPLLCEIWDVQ
Experiment: ATG_FXR_TRANS: Attagene TRANS-FACTORIAL HepG2 Assay for Farnesoid X Receptor (FXR) (AID 2282979);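 note: hits raise reporter mRNA above DMSO so AC50 marks FXR activation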
Conditions: HepG2 Attagene TRANS FXR-GAL4 reporter transcription
Inconclusive results are not listed. Calls of active or inactive are those of the source. Rule for the calls: active = hit-call score of the fitted dose curve at least 0.9, where 1 is the maximum; inconclusive = response in the unintended direction; inactive = score below 0.9.
# output must be one of Yes for active, No for inactive

C=Cc1ccc(O)c(OC)c1; No
FC(F)(F)C1(F)C(F)(F)C(F)(F)C(F)(F)C(F)(C(F)(F)F)C1(F)F (centres undefined); No

What classification did CC1=NN(c2ccccc2)C(=O)C1 end up with in this test?
No

What classification did O=C(O)CCC(F)(F)C(F)(F)C(F)(F)C(F)(F)C(F)(F)C(F)(F)F end up with in this test?
No

What classification did COC(O)c1ccccc1 (centres undefined) end up with in this test?
No

What classification did O=C(F)C(F)(F)C(F)(F)C(F)(F)C(F)F end up with in this test?
No

What classification did NNc1nc(-c2ccc([N+](=O)[O-])cc2)cs1 end up with in this test?
No

----------
Read-out: Plasminogen activator inhibitor-1 (PAI1), SERPINE1 (gene 5054)
Test: BSK_BE3C_PAI1: BioMAP Diversity Plus: BE3C Assay for Plasminogen activator inhibitor-1 (PAI1) Biomarker Activity (AID 2283037)
Conditions: primary human bronchial epithelial cells; actives raise or lower the signal
Activity calls are given as the source filed them. How the source made its calls: active means hit-call score of the fitted dose curve at least 0.9, where 1 is the maximum; inactive means score below 0.9.
TEST READOUT: outcome

O=C1c2ccc(O)c(O)c2C(=O)c2c(O)ccc(O)c21; inactive
CCOC(=O)CN[C@@H](C(=O)N1CC[C@H]1C(=O)NCc1ccc(/C(N)=N/O)cc1)C1CCCCC1; inactive
CCCCCCCCCCCCCCC; inactive

----------
Target: Hepatocyte nuclear factor 3-beta (Homo sapiens) (UniProt Q9Y261)
Sequence (Q9Y261 whole entry, looked up): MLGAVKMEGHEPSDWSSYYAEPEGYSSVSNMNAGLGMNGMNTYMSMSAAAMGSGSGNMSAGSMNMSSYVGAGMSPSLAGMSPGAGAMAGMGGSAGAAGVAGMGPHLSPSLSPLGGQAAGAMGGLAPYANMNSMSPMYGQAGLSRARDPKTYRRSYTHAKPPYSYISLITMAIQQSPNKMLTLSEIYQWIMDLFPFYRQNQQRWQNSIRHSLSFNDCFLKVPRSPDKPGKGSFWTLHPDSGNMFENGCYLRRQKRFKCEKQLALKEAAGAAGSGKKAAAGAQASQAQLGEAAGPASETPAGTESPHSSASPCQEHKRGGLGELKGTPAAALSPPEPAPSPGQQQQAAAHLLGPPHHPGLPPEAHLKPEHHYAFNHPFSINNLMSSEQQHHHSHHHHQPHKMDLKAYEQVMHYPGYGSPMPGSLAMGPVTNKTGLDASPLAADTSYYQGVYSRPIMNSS
Assay: ATG_FoxA2_CIS: Attagene CIS-FACTORIAL HepG2 Assay for human Forkhead box A2 (FOXA2) (AID 2282942)
Conditions: HepG2 cis-reporter transcription factor activity, 24 h; actives raise or lower the signal
The source made the active and inactive calls. How the source made its calls: active means hit-call score of the fitted dose curve at least 0.9, where 1 is the maximum; inactive means score below 0.9.
# output must be one of 1 (yes) for active, 0 (no) for inactive

Look over these answered cases.
CCC(C)c1ccccc1O (stereo not given); 0 (no)
Brc1cc(Br)c(Oc2c(Br)cc(Br)c(Br)c2Br)cc1Br; 0 (no)
CCOC(C)=O; 0 (no)
CCCCCCCCCCCC(=O)O; 0 (no)
CC(O)COc1ccccc1 (stereo not given); 0 (no)
CCN(CCC#N)c1ccccc1; 0 (no)
FC(OC(F)(F)C(F)(F)C(F)(F)F)C(F)(F)F (stereo not given); 0 (no)
Cc1cc(=O)oc2cc(O)ccc12; 0 (no)

What classification did O=C1Cc2ccccc2N1c1c(Cl)cccc1Cl end up with in this test?
0 (no)

What classification did Cc1[nH]nc2c1N=C(c1ccccc1Cl)c1cc([N+](=O)[O-])ccc1N2 end up with in this test?
0 (no)

What classification did FC(F)(F)C(F)(F)C(F)(F)Br end up with in this test?
0 (no)

What classification did O=C(CCCN1CCC(O)(c2ccc(Cl)cc2)CC1)c1ccc(F)cc1 end up with in this test?
0 (no)

What classification did CCCCCCCCCCCCCCC end up with in this test?
0 (no)
